target: CDK4-NanoLuc fusion with CCND1 in 293T or 293 cells (Homo sapiens, UniProt P11802); construct: host or cells: 293T (ATCC CRL-3216) or 293 (ATCC CRL-1573); experiment: NanoBRET Target Engagement (TE) Intracellular Kinase Assay, CDK4/CCND1; assay type: cell-based; settings: NanoBRET TE intracellular kinase assay, 2-hour incubation, read-out: NanoBRET-CDK4/D1 IC50
Sequence (P11802 whole entry, the tested form may be a part): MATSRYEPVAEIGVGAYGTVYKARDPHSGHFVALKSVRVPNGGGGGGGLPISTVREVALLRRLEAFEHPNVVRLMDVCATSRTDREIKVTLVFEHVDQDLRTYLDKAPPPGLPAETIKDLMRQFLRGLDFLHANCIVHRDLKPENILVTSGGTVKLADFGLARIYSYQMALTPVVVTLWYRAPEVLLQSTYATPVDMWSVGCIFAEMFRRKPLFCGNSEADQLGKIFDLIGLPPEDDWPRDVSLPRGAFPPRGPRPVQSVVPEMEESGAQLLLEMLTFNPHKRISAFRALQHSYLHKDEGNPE
Sequence (P24385 whole entry partner, the tested form may be a part): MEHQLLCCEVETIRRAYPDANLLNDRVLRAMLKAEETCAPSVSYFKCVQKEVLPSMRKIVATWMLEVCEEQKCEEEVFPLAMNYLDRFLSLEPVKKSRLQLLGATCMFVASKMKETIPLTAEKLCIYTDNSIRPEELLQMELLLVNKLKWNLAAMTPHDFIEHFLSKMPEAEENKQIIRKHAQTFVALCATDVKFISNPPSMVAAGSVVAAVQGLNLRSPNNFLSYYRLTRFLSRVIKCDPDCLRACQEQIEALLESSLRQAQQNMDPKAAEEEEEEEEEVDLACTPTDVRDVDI
measured quantity: IC50 (µM)

Known IC50 results, listed for orientation:
COC[C@H](C)NC(=O)O[C@@H]1CC[C@H](c2cc(NC(=O)COc3cc(OC)cc(O)c3C=O)n[nH]2)C1    8.41
COCC1(NC(=O)O[C@@H]2CC[C@H](c3cc(NC(=O)COc4cc(OC)cc(O)c4C=O)n[nH]3)C2)CC1    3.87
COc1cc(O)c(C=O)c2c1CC(C(=O)Nc1cc([C@H]3C[C@@H](OC(=O)NC(C)C)C3)[nH]n1)C2 (single isomer, unassigned)    3.35
CC(C)NC(=O)O[C@@H]1CC[C@H](c2cc(Nc3cc(C#Cc4cccc(O)c4C=O)ccn3)n[nH]2)C1    0.224
CC(C)NC(=O)O[C@@H]1CC[C@H](c2cc(NC(=O)C3C[C@H]3c3cccc(O)c3C=O)n[nH]2)C1 (stereo in doubt)    4.7
COc1cc(O)c(C=O)c2c1CC(C(=O)Nc1cc([C@H]3CC[C@@H](OC(=O)NC(C)(C)C)C3)[nH]n1)C2 (single isomer, unassigned)    0.236
Cc1cc(O)c(C=O)c(OCC(=O)Nc2cc([C@H]3CC[C@@H](OC(=O)NC4(C)CC4)C3)[nH]n2)c1    4.07
CCN(NC)C(=O)O[C@@H]1CC[C@H](c2cc(NC(=O)COc3cc(OC)cc(O)c3C=O)n[nH]2)C1    5.3

(P) CC1(NC(=O)O[C@@H]2CC[C@H](c3cc(NC(=O)COc4cccc(O)c4C=O)n[nH]3)C2)CC1
(Q) COc1cc(O)c(C=O)c(OCC(=O)Nc2cc([C@H]3CC[C@@H](OC(=O)N4CCC[C@H](C#N)C4)C3)[nH]n2)c1
Hi team, can someone confirm which has the larger IC50: P or Q ? Thanks. Field: selected label. Fill in the label of the entry you choose. P

----------
target: CDK1-NanoLuc fusion with CCNB1 in 293T or 293 cells (Homo sapiens, UniProt P06493); construct: host or cells: 293T (ATCC CRL-3216) or 293 (ATCC CRL-1573); experiment: NanoBRET Target Engagement (TE) Intracellular Kinase Assay, CDK1/CCNB1; format: cell-based; details: NanoBRET TE intracellular kinase assay, 2-hour incubation, read-out: NanoBRET-CDK1/B1 IC50
Sequence (P06493 whole entry, the tested form may be a part): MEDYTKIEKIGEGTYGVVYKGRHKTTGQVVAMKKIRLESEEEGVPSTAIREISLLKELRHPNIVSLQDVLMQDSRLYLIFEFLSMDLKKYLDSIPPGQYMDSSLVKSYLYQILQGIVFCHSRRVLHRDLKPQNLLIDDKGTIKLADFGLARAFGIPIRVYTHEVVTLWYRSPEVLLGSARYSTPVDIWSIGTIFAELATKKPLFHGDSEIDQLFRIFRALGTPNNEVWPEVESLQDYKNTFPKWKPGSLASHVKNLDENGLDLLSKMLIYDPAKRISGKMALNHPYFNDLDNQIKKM
Sequence (P14635 whole entry partner, the tested form may be a part): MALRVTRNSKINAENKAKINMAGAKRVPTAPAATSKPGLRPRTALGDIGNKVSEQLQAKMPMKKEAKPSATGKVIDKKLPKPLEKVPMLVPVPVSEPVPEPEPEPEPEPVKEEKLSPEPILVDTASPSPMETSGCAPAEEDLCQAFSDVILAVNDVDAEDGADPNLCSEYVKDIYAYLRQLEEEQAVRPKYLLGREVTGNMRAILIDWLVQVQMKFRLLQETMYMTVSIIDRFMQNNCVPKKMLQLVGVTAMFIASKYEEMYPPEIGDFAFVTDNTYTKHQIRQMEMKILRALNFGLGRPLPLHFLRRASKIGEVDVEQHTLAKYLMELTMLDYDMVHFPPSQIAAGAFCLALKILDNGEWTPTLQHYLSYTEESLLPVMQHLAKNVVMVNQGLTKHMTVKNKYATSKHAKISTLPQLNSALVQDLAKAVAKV
measured quantity: IC50 (nM)

Completed entries (count: 5):
CC(C)NC(=O)O[C@@H]1CC[C@H](c2cc(NC(=O)[C@@H](C)Oc3cccc(O)c3C=O)n[nH]2)C1 [Compound 32]    52
CC(C)NC(=O)O[C@@H]1CC[C@H](c2cc(NC(=O)c3ccc(O)c(C=O)c3)n[nH]2)C1 [Compound 3, trifluoroacetic acid]    32.8
COc1cc(O)c(C=O)c(OCC(=O)Nc2cc([C@H]3CC[C@@H](OC(=O)N(C)C(C)C)C3)[nH]n2)c1 [Compound 244]    4.17
COc1cc(O)c(C=O)c(OCC(=O)Nc2cc([C@H]3CC[C@@H](OC(=O)N4CCC(F)(F)C4)C3)[nH]n2)c1 [Compound 246]    9.45
COc1cc(O)c(C=O)c(OCC(=O)Nc2cc([C@H]3CC[C@@H](OC(=O)N4C5CCCC4C5)C3)[nH]n2)c1 [Compound 220]    8.36

(A) CNC(=O)O[C@@H]1CC[C@H](c2cc(NC(=O)c3cc(-c4cccc(O)c4C=O)nn3C)n[nH]2)C1 [Compound 50]
(B) COc1cc(O)c(C=O)c(-c2cc(C(=O)Nc3cc([C@H]4CC[C@@H](OC(=O)NC(C)C)C4)[nH]n3)n(C)n2)c1 [Compound 48]
I would appreciate it if you could say which entry, A or B , has the lower IC50 value. Your choice should be expressed through its label. B
